assay: Selectivity index, ratio of IC50 for cytotoxicity against African green monkey Vero cells to IC50 for antileishmanial activity against Leishmania donovani 9515 amastigote infected in human THP-1 cells assessed as static activity; type: toxicity, cell-based; settings: read-out: Ratio IC50
quantity: selectivity ratio

Input line: Please give the measured selectivity ratio for this compound: CCCCc1cn(CCCN2C(=O)CN(/N=C/c3ccc([N+](=O)[O-])o3)C2=O)nn1
Output line: 99

====

Entries annotated with measured IC50 at 48 h
experiment: Cytotoxicity against HEK293 cells assessed as inhibition of cell growth incubated for 48 hrs by resazurin dye based assay; assay type: toxicity; conditions: human
Unit µM implied. Number only.

The examples below pair each entry with its known result.
>>> recordednumber("CCCCCCc1cn(CCCCCN2C(=O)CN(/N=C/c3ccc([N+](=O)[O-])o3)C2=O)nn1")
65.9
>>> recordednumber("COc1ccc(-c2cn(CCCN3C(=O)CN(/N=C/c4ccc([N+](=O)[O-])o4)C3=O)nn2)cc1")
10.8
>>> recordednumber("CCCCCCc1cn(CCCCCCN2C(=O)CN(/N=C/c3ccc([N+](=O)[O-])o3)C2=O)nn1")
83.4
>>> recordednumber("CCCCc1cn(CCCCCCN2C(=O)CN(/N=C/c3ccc([N+](=O)[O-])o3)C2=O)nn1")
44.5
>>> recordednumber("CC[C@H]1CN2CCc3cc(OC)c(OC)cc3[C@@H]2C[C@@H]1C[C@H]1NCCc2cc(OC)c(OC)cc21")
0.01
>>> recordednumber("O=C1CN(/N=C/c2ccc([N+](=O)[O-])o2)C(=O)N1CCCCCn1cc(-c2ccc(F)cc2)nn1")
37.2
>>> recordednumber("CCCCCCc1cn(CCCN2C(=O)CN(/N=C/c3ccc([N+](=O)[O-])o3)C2=O)nn1")
16.5
>>> recordednumber("O=C1CN(/N=C/c2ccc([N+](=O)[O-])o2)C(=O)N1CCCCCn1cc(-c2cc(C(F)(F)F)cc(C(F)(F)F)c2)nn1")
17.7

Input line: # lookup: IC50 at 48 h of O=C1CN(/N=C/c2ccc([N+](=O)[O-])o2)C(=O)N1CCCn1cc(CSc2ccccc2)nn1
Output line: 37.4

Input line: Which IC50 at 48 h reading was recorded for the compound COc1ccc(-c2cn(CCCCCN3C(=O)CN(/N=C/c4ccc([N+](=O)[O-])o4)C3=O)nn2)cc1 ?
Output line: 22.7

Input line: I would be grateful if you could share the reported IC50 at 48 h for CCCCCCCCc1cn(CCCCCCN2C(=O)CN(/N=C/c3ccc([N+](=O)[O-])o3)C2=O)nn1 .
Output line: 50.3

====

assay: in vitro; conditions: human, THP-1 cells
quantity: IC50 at 48 h (µM)
Please reply with the bare figure in µM and do not write the unit itself.

Some solved entries appear below for comparison.
>>> recordednumber("CCCCCc1cn(CCCN2C(=O)CN(/N=C/c3ccc([N+](=O)[O-])o3)C2=O)nn1")
50.6
>>> recordednumber("CCCCc1cn(CCCN2C(=O)CN(/N=C/c3ccc([N+](=O)[O-])o3)C2=O)nn1")
52.5
>>> recordednumber("O=C1CN(/N=C/c2ccc([N+](=O)[O-])o2)C(=O)N1CCCn1cc(CSc2ccccc2)nn1")
6.65

Turning to the following compound.
Input line: Can you look up the measured IC50 at 48 h of CCCCCCc1cn(CCCN2C(=O)CN(/N=C/c3ccc([N+](=O)[O-])o3)C2=O)nn1 for me?
Output line: 38.5

====

assay: Cytotoxicity against HEK293 cells assessed as inhibition of cell growth incubated for 48 hrs by resazurin dye based assay; type: toxicity; details: human
Form field: IC50 at 48 h (one value per entry).
Use µM as the unit, but write only the number.

>>> recordednumber("COc1ccc(-c2cn(CCCCCCN3C(=O)CN(/N=C/c4ccc([N+](=O)[O-])o4)C3=O)nn2)cc1")
5.39

Input line: Which IC50 at 48 h reading was recorded for the molecule O=C1CN(/N=C/c2ccc([N+](=O)[O-])o2)C(=O)N1CCCn1cc(-c2cc(C(F)(F)F)cc(C(F)(F)F)c2)nn1 ?
Output line: 30.6

Input line: Look up IC50 at 48 h for this molecule: O=C1CN(/N=C/c2ccc([N+](=O)[O-])o2)C(=O)N1CCCCCCn1cc(-c2ccc(F)cc2)nn1
Output line: 8.97

====

Readings of selectivity ratio for the listed compounds
assay: in vitro; settings: monkey, Vero cells
Description: Selectivity index, ratio of IC50 for cytotoxicity against African green monkey Vero cells to IC50 for antileishmanial activity against Leishmania major IR-173 amastigote infected in human THP-1 cells assessed as static activity
Please state the value as a number alone, without comment.

// solved cases for selectivity ratio follow
>>> recordednumber("CCCCCc1cn(CCCN2C(=O)CN(/N=C/c3ccc([N+](=O)[O-])o3)C2=O)nn1")
164
>>> recordednumber("O=Cc1ccc([N+](=O)[O-])o1")
3
>>> recordednumber("O=C1OCCN1/N=C/c1ccc([N+](=O)[O-])o1 [FURAZOLIDONE]")
17
>>> recordednumber("NC(=O)N/N=C/c1ccc([N+](=O)[O-])o1 [NITROFURAZONE]")
36
>>> recordednumber("CCCCc1cn(CCCN2C(=O)CN(/N=C/c3ccc([N+](=O)[O-])o3)C2=O)nn1")
30

With those in mind, consider the next compound.
Input line: selectivity ratio lookup needed for CCCCCCc1cn(CCCN2C(=O)CN(/N=C/c3ccc([N+](=O)[O-])o3)C2=O)nn1 , thanks.
Output line: 119

====

test: in vitro; conditions: human, THP-1 cells
quantity: IC50 at 48 h

Example molecules with recorded IC50 at 48 h:
>>> result("CCCCCc1cn(CCCCCN2C(=O)CN(/N=C/c3ccc([N+](=O)[O-])o3)C2=O)nn1")
"70 µM"
>>> result("COc1ccc(-c2cn(CCCN3C(=O)CN(/N=C/c4ccc([N+](=O)[O-])o4)C3=O)nn2)cc1")
"> 100 µM"
>>> result("O=C1OCCN1/N=C/c1ccc([N+](=O)[O-])o1 [FURAZOLIDONE]")
"> 100 µM"

Input line: Fill in: IC50 at 48 h of NC(=O)N/N=C/c1ccc([N+](=O)[O-])o1 [NITROFURAZONE] is ___
Output line: > 100 µM

====

experiment: Selectivity index, ratio of IC50 for cytotoxicity against HEK293 cells to IC50 for antileishmanial activity against Leishmania donovani 9515 promastigotes; format: toxicity, cell-based; settings: human, read-out: Ratio IC50
quantity: selectivity ratio
Lab note: jot down the number only; don't add units.

Worked cases, selectivity ratio given:
>>> recordednumber("O=C1CN(/N=C/c2ccc([N+](=O)[O-])o2)C(=O)N1CCCCCCn1cc(CSc2ccccc2)nn1")
327
>>> recordednumber("COc1ccc(-c2cn(CCCCCCN3C(=O)CN(/N=C/c4ccc([N+](=O)[O-])o4)C3=O)nn2)cc1")
23
>>> recordednumber("O=C1CN(/N=C/c2ccc([N+](=O)[O-])o2)C(=O)N1CCCCCn1cc(CSc2ccccc2)nn1")
8790
>>> recordednumber("CCCCCCCCc1cn(CCCCCCN2C(=O)CN(/N=C/c3ccc([N+](=O)[O-])o3)C2=O)nn1")
457
>>> recordednumber("CCCCCCc1cn(CCCCCCN2C(=O)CN(/N=C/c3ccc([N+](=O)[O-])o3)C2=O)nn1")
174
>>> recordednumber("Cc1ccc(-c2cn(CCCCCCN3C(=O)CN(/N=C/c4ccc([N+](=O)[O-])o4)C3=O)nn2)cc1")
32
>>> recordednumber("CCCCCCc1cn(CCCCCN2C(=O)CN(/N=C/c3ccc([N+](=O)[O-])o3)C2=O)nn1")
108

Input line: selectivity ratio lookup needed for O=C1CN(/N=C/c2ccc([N+](=O)[O-])o2)C(=O)N1CCCn1cc(-c2cc(C(F)(F)F)cc(C(F)(F)F)c2)nn1 , thanks.
Output line: 26

====

system: Leishmania major; assay: Antileishmanial activity against Leishmania major IR-173 promastigotes assessed as inhibition of parasite growth incubated for 48 hrs by resazurin dye based assay; format: functional, organism-based; settings: IR-173, 48 h
Recorded IC50 by entry
State just the number; it will be interpreted in nM.

Input line: So what's the measured IC50 for this one? Cc1ccc(-c2cn(CCCCCN3C(=O)CN(/N=C/c4ccc([N+](=O)[O-])o4)C3=O)nn2)cc1
Output line: 1860

Input line: Would you mind telling me what IC50 value was observed for COc1ccc(-c2cn(CCCCCCN3C(=O)CN(/N=C/c4ccc([N+](=O)[O-])o4)C3=O)nn2)cc1 ?
Output line: 590

Input line: Return reported IC50; argument: CCCCc1cn(CCCN2C(=O)CN(/N=C/c3ccc([N+](=O)[O-])o3)C2=O)nn1
Output line: 450

Input line: Can you look up the measured IC50 of O=C1CN(/N=C/c2ccc([N+](=O)[O-])o2)C(=O)N1CCCCCCn1cc(CSc2ccccc2)nn1 for me?
Output line: 2750

Input line: I have this molecule here, CCCCCc1cn(CCCN2C(=O)CN(/N=C/c3ccc([N+](=O)[O-])o3)C2=O)nn1 , and I need its recorded IC50.
Output line: 550

Input line: Report IC50 for O=C1CN(/N=C/c2ccc([N+](=O)[O-])o2)C(=O)N1CCCn1cc(-c2cc(C(F)(F)F)cc(C(F)(F)F)c2)nn1 please.
Output line: 670
